procedure.summary: Toxicokinetic evaluation of 14-day repeated intragastric administration to SD rats
Format: in vivo
study.conditions: both sexes, SD, rat, plasma, po, 3 mg/kg, repeated intragastric 3.0 mg/kg, Day 14, read-out: Clearance CL/F
Experimental: With SD rats as test animals, the plasma concentrations of the test compounds and the concentrations of the original forms of the compounds in the administration solutions were measured by LC/MS/MS at different time points after intragastric administration. The toxicokinetic performance of the compound disclosed herein was studied in SD rats and its toxicokinetic profile was evaluated. […]
measure: CL/F at 14 day (mL/min/kg)

>>> result_number("CC(C)n1c(=O)cc(N[C@@H](C)c2ccccc2)[nH]c1=O [MYK-461, reference compound]")
1.3
